details: in acetonitrile, 313.15 K
METRIC NAME: solubility (mole fraction)
Output: the number by itself.

Req: What solubility (mole fraction) value was documented for this compound, c1ccc2c(c1)sc1ccccc12 ?
Resp: 0.00478

----------
details: in acetonitrile, 283.15 K
METRIC NAME: solubility (mole fraction)
Write the number on its own, no unit after it.

Req: Quick one: solubility (mole fraction) for c1ccc2c(c1)sc1ccccc12 ?
Resp: 0.00163

----------
settings: in acetonitrile, 288.65 K
METRIC NAME: solubility (mole fraction)
Simply state the number, no unit and no words.

Req: Given c1ccc2c(c1)sc1ccccc12 , state its recorded solubility (mole fraction).
Resp: 0.00192

----------
conditions: in acetonitrile, 278.15 K
METRIC NAME: solubility (mole fraction)
Please give only the number in your answer, with no unit.

Req: solubility (mole fraction) for c1ccc2c(c1)sc1ccccc12 ?
Resp: 0.00126

----------
settings: in acetonitrile, 308.15 K
METRIC NAME: solubility (mole fraction)
Number only, no unit.

Req: # solubility (mole fraction) lookup, item c1ccc2c(c1)sc1ccccc12
Resp: 0.00406

----------
conditions: in methanol, 328.15 K
METRIC NAME: solubility (mole fraction)
Write no unit; give the number alone.

Req: # input molecule: c1ccc2c(c1)sc1ccccc12 ; wanted: its solubility (mole fraction)
Resp: 0.0639

----------
settings: in methanol, 318.15 K
METRIC NAME: solubility (mole fraction)
# respond with the number and nothing more

Req: Tell me the measured solubility (mole fraction) of c1ccc2c(c1)sc1ccccc12 , please.
Resp: 0.0402

----------
conditions: in methanol, 333.15 K
METRIC NAME: solubility (mole fraction)

Req: Can you share its solubility (mole fraction)? I mean this molecule: c1ccc2c(c1)sc1ccccc12
Resp: 0.0839

----------
details: in methanol, 283.15 K
METRIC NAME: solubility (mole fraction)
# print the numeric value only

Req: So what's the measured solubility (mole fraction) for this one? c1ccc2c(c1)sc1ccccc12
Resp: 0.00611

----------
conditions: in methanol, 278.15 K
METRIC NAME: solubility (mole fraction)
API note: the answer field is a bare number with no unit suffix.

Req: Look up solubility (mole fraction) for this compound: c1ccc2c(c1)sc1ccccc12
Resp: 0.00454

----------
settings: in methanol, 308.15 K
METRIC NAME: solubility (mole fraction)
Number, no unit, nothing else.

Req: Quick one: solubility (mole fraction) of c1ccc2c(c1)sc1ccccc12 ?
Resp: 0.0241

----------
conditions: in methanol, 323.15 K
METRIC NAME: solubility (mole fraction)
Give only the figure.

Req: Returns the measured solubility (mole fraction) for the input molecule. Input: c1ccc2c(c1)sc1ccccc12
Resp: 0.0506

----------
details: in acetonitrile, 298.15 K
METRIC NAME: solubility (mole fraction)
Form rule: numeric answer, no unit written next to it.

Req: Name the reported solubility (mole fraction) value associated with the compound c1ccc2c(c1)sc1ccccc12
Resp: 0.0029

----------
details: in acetonitrile, 318.15 K
METRIC NAME: solubility (mole fraction)
Reply briefly: the number, and no unit.

Req: Need solubility (mole fraction), item c1ccc2c(c1)sc1ccccc12
Resp: 0.0056

----------
details: in acetonitrile, 323.15 K
METRIC NAME: solubility (mole fraction)
Form rule: numeric answer, no unit written next to it.

Req: Recorded solubility (mole fraction) for c1ccc2c(c1)sc1ccccc12 , please?
Resp: 0.00668
